- systemName: STR1 (Arabidopsis thaliana)
- Construct: untagged (pET28a) or C-terminal His tag (used for Cys variants); E. coli BL21(DE3)
- Sequence (O64530 57-379): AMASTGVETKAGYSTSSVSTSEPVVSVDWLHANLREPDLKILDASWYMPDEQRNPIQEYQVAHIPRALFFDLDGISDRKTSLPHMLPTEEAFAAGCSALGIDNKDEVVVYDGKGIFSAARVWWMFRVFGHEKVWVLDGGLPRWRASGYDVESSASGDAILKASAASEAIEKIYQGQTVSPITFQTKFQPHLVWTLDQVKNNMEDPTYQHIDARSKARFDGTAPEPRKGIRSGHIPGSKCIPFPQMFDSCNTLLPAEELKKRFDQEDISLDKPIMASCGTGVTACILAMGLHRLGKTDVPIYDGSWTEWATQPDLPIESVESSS
- experimentalProtocol: intrinsic tryptophan fluorescence quenching
experimentalReadout: pKd
One number for each entry, as −log10 of the molar value.

Write pKd of O=C(O)C(=O)CS [3-MP] ; system used: STR1 (Arabidopsis thaliana) 5.89

====

- systemName: STR2 (Arabidopsis thaliana, UniProt Q24JL3)
- Sequence (Q24JL3 whole entry): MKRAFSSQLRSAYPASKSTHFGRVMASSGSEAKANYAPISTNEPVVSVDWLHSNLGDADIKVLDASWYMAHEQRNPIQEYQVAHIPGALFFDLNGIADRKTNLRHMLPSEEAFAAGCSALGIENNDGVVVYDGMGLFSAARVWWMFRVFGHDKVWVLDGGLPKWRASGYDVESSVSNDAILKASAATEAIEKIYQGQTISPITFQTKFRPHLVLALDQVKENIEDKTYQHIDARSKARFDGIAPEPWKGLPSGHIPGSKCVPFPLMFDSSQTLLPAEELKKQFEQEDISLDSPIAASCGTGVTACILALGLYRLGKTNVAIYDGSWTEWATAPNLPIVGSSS
experimentalReadout: pKd
One number for each entry, as −log10 of the molar value.

Give pKd for the following compound: O=C(O)C(=O)CS 6.15
